Positions of bridges follow the written chain, without caps; N, C: chain ends. Non-standard residues stand in square brackets, D forms with d. Residues, ends and D or L forms follow the SMILES beside them. S5 = C=CCCC[C@](C)(N)C(=O)O
REPORTED_METRIC: MRE (deg cm2 dmol-1)

molecule="CC[C@H](C)[C@@H]1NC(=O)[C@@](C)(NC(=O)[C@H](CCC(=O)O)NC(=O)[C@@H]2CCCN2C(=O)[C@H](CC(N)=O)NC(=O)[C@H](CCC(=O)O)NC(C)=O)CCCC=CCCC[C@@](C)(C(=O)N[C@@H](Cc2c[nH]cn2)C(=O)N[C@H](C(=O)N[C@@H](CCC(N)=O)C(=O)N[C@@H](CCCNC(=N)N)C(=O)N[C@H](C(=O)N[C@@H](CCSC)C(N)=O)C(C)C)C(C)C)NC(=O)[C@H](CC(=O)O)NC(=O)[C@H](CC(C)C)NC1=O [aStAx-3, reference compound] (Ac-ENPE[S5]ILD[S5]HVQRVM-NH2; staple 5-9)" obs_value=-10800

* * *

REPORTED_METRIC: [θ]222 (deg cm2 dmol-1)

substance=Ac-ENPESILDEHVQRVM-NH2 obs_value=-42900
substance="Ac-ENPEWILDKHVQRVM-NH2 [P6]" obs_value=-59400

* * *

Positions of bridges follow the written chain, without caps; N, C: chain ends. Non-standard residues stand in square brackets, D forms with d. Residues, ends and D or L forms follow the SMILES beside them. S5 = C=CCCC[C@](C)(N)C(=O)O
REPORTED_METRIC: [θ]222 (deg cm2 dmol-1)

molecule="CC[C@H](C)[C@@H]1NC(=O)[C@@](C)(NC(=O)[C@H](CCC(=O)O)NC(=O)[C@@H]2CCCN2C(=O)[C@H](CC(N)=O)NC(=O)[C@H](CCC(=O)O)NC(C)=O)CCCC=CCCC[C@@](C)(C(=O)N[C@@H](Cc2c[nH]cn2)C(=O)N[C@H](C(=O)N[C@@H](CCC(N)=O)C(=O)N[C@@H](CCCNC(=N)N)C(=O)N[C@H](C(=O)N[C@@H](CCSC)C(N)=O)C(C)C)C(C)C)NC(=O)[C@H](CC(=O)O)NC(=O)[C@H](CC(C)C)NC1=O [aStAx-3, reference compound] (Ac-ENPE[S5]ILD[S5]HVQRVM-NH2; staple 5-9)" obs_value=-162000
